System: Wolbachia pipientis
procedure_details: Anti-Wolbachia Cell-Based Screen
Assay type: functional
Parameters: scale not given: in the data most compounds retested in dose-response had high values
cond: 5 µM
Screen size: about 48,000 compounds; about 13,000 (27%) showed an effect of 50% or more. The list shows a part of the results.
reported_endpoint: Percent Effect (%)
Answers are plain numbers, in %.

molecule	system	Percent Effect / %
Cc1cnc(C(=O)NCC2Cc3ccccc3O2)cn1 (centres undefined)	Wolbachia pipientis	-10.72
Cc1ncc(-c2ccccn2)c(CCNC(=O)C2CCCC2)n1	Wolbachia pipientis	121.3
CCCN1CCC(N2CCN(c3cc(C)nc(C)c3)CC2)CC1	Wolbachia pipientis	-11.77

Quick request: Percent Effect for each listed item, please.
1. CCC1=N[C@@]2(CC[C@@H]3CN(S(=O)(=O)CC)C[C@@H]32)C(=O)N1CC(C)C
2. COCCCN1CC2(CCCCN2C(=O)COC)CC1=O (centres undefined)
3. CC(=O)c1ccc(C(=O)NCC2Cc3ccccc3O2)s1 (centres undefined)

-13.66
-19.41
-26.22

Quick request: Percent Effect for each listed item, please.
1. CC(C)c1noc(CCC(=O)NCC2CCS(=O)(=O)C2)n1 (centres undefined)
2. CCN1CC2(CCCCN2C(=O)c2ccn(C)n2)CC1=O (centres undefined)
3. CC(C)c1noc(CCNC(=O)NCC2Cc3ccccc3O2)n1 (centres undefined)
4. CC(C)c1noc(CCNC(=O)NCC2COc3ccccc3O2)n1 (centres undefined)
5. N#Cc1cccc(C(=O)Nc2ccc([C@@H](O)[C@H]3COCC(=O)N3)cc2)c1
6. CCCn1[nH]cc/c1=N\C(=O)CN1CCCC1Cn1nc(C)nc1C (centres undefined)
7. COCCN1CCCc2sc(C(=O)NCC3CCCO3)nc21 (centres undefined)
8. CC(C)c1noc(C(C)N2CCN(Cc3cccc(C#N)c3)CC2)n1 (centres undefined)

1. 6.847
2. -5.146
3. 104.8
4. 100.4
5. -8.801
6. -1.859
7. 104.4
8. 10.45

Quick request: Percent Effect for each listed item, please.
1. Cc1cc(S(=O)(=O)N2CCC(N3CCC(O)C3)CC2)c(Cl)cc1Cl (centres undefined)
2. COc1ccc(-c2nc(CN3CCCS3(=O)=O)co2)cc1
3. CCc1[nH]ncc1C(=O)N1CCCC(n2ccnc2C(C)C)C1 (centres undefined)
4. CC(C)c1noc(CN(C)C(=O)C2COc3ccccc3C2)n1 (centres undefined)

1. -12.47
2. -14.94
3. -14.63
4. -21.45

Attribution: ChEMBL document CHEMBL3988442
